test system: HOP-92 NSCLC; assay: NCI-60 one-dose screen, 48 h; settings: 10 µM unless noted
About 83,000 compounds went through this panel and 20% of them were active in at least one assay; those are over-represented in the sample as a whole. Active and inactive are the calls of the source. Rule for the calls: active = growth percent below 10; inactive = the rest.
Your response should consist of one outcome taken from true (active), false (inactive)

Could you check what this test reported for `CCOC(=O)c1c(C)[nH]c(CO)c1C` ?
false

Could you check what this test reported for `Cc1ccc2nc(-[n+]3cc4ccccc4cc3C)ccc2c1` ?
true

Could you check what this test reported for `O=C(/C=C/C=C/c1ccccc1)c1ccco1` ?
false

Could you check what this test reported for `Oc1c(Br)cc(Cl)cc1C(c1cc(Cl)cc(Br)c1O)C(Cl)(Cl)Cl` ?
true

Could you check what this test reported for `CC(C)(C)c1ccc(O)c(C2CCCCC2)c1` ?
false

Could you check what this test reported for `CC(C)c1ccc2nc3ccc(C(=O)NCCN4CCN(c5ccccc5)CC4)cn3c(=O)c2c1` ?
false

Could you check what this test reported for `CN(C)C(=O)c1ccc(SC(=S)NCc2ccccc2)cc1` ?
true

Could you check what this test reported for CCC1OC(OC)C=CC1=O (stereo not drawn) ?
false

Could you check what this test reported for `Cc1c2ccccc2c(C)c2c1ccc1ccccc12` ?
false

Could you check what this test reported for `COc1ccccc1/C=C\C(=O)c1ccccc1` ?
false

Could you check what this test reported for `CCC(CC)COC(=O)c1ccc(O)c(O)c1` ?
false

Could you check what this test reported for `Oc1c(Cl)c2ccccc2c2ccccc12` ?
false

Could you check what this test reported for `COc1ccc(-c2cscc2N)cc1` ?
false

* * *

tested on: DU-145 prostate; assay: NCI-60 one-dose screen, 48 h (100 = growth as untreated, 0 = no growth, -100 = all killed); settings: 10 µM unless noted
This is part of a sample that, as a whole, favours compounds with a hit. Of some 83,000 tested, about 20% had one in any assay.
measure: growth (%)
Please give a number only; it is taken to be in %.

Data point: `O=C(/C=C/C=C/c1ccccc1)c1ccco1` ; growth = 99.7

Data point: `N#Cc1ccc([N+](=O)[O-])o1` ; growth = 111

Data point: `Oc1c(Br)cc(Cl)cc1C(c1cc(Cl)cc(Br)c1O)C(Cl)(Cl)Cl` ; growth = 31.1

Data point: `N#CSCc1ccc(CSC#N)c(Cl)c1` ; growth = 42.5

Data point: `CCC(=O)Sc1ccccc1C(=O)Nc1ccc(Cl)cc1` ; growth = 74.3

Data point: `O=[N+]([O-])c1ccc2c(N=Nc3ccc4ccccc4c3O)c(O)cc(S(=O)(=O)O)c2c1` ; growth = 104

* * *

system: NCI-H522 lung; assay: NCI-60 one-dose screen, 48 h; conditions: 10 µM unless noted
This is part of a sample that, as a whole, favours compounds with a hit. Of some 83,000 tested, about 20% had one in any assay. Activity calls are given as the source filed them. How the source made its calls: active means growth percent below 10; inactive means the rest.
Your response should consist of one outcome taken from active, inactive

Could you check what this test reported for `O=C(/C=C\c1cc(Br)ccc1O)/C=C/c1cc(Br)ccc1O` ?
active

Could you check what this test reported for `O=C1C=CC(=O)N1C1c2ccccc2-c2ccccc21` ?
inactive

Could you check what this test reported for `Oc1c(Br)cc(Cl)cc1C(c1cc(Cl)cc(Br)c1O)C(Cl)(Cl)Cl` ?
active

Could you check what this test reported for `CCOc1ccc(-c2nc3ccc(-c4nc5ccc(N6CCN(C)CC6)cc5[nH]4)cc3[nH]2)cc1` ?
active

Could you check what this test reported for `Oc1c(Cl)c2ccccc2c2ccccc12` ?
inactive

Could you check what this test reported for `Cc1ccc2nc(-[n+]3cc4ccccc4cc3C)ccc2c1` ?
inactive

Could you check what this test reported for `O=C1c2ccccc2C(=O)c2sc(Nc3cccc(Cl)c3)nc21` ?
active

Could you check what this test reported for `O=C1N[C@H]2[C@H](CS[C@H]2CCCCC(=O)N(CCP(c2ccccc2)c2ccccc2)CCP(c2ccccc2)c2ccccc2)N1` ?
inactive

Could you check what this test reported for CCC(CCCN(CC)CCc1ccccc1)OC(=O)c1cc(OC)c(OC)c(OC)c1 (stereo unspecified) ?
inactive

Could you check what this test reported for `Oc1ccc(/C=N/NC(=S)Nc2ccccc2)nc1` ?
active

Could you check what this test reported for `O=C(Nc1c(Cl)cccc1Cl)Oc1cccc2cccnc12` ?
active
